Values from PubChem BioAssay AID1845198

- Test system: 425362-245-T-J1 tumor spheroids, viability % test/control;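 note: spheroids exposed to agents for 7 days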
- procedure_summary: Anticancer human tumor 425362-245-T-J1 patient-derived melanoma cell line growth inhibition
- condition_context: curve of first compound; second compound 0.003 µM; spheroids with HUVEC and MSC

| compound | IC50 |
| --- | --- |
| CNCc1ccc(-c2cc(-c3nc(-c4ccc(S(=O)(=O)C(C)C)cc4)cnc3N)on2)cc1 + COc1cc2c(cc1O)CCNC21CSC2c3c(OC(C)=O)c(C)c4c(c3C(COC1=O)N1C(O)C3Cc5cc(C)c(OC)c(O)c5C(C21)N3C)OCO4 | < 9.49 nM |
| COc1ccc([C@@H](O)c2cc(-c3ncnc4cc(N5CCOCC5)ccc34)c(F)cc2Cl)nn1 + COc1cc2c(cc1O)CCNC21CSC2c3c(OC(C)=O)c(C)c4c(c3C(COC1=O)N1C(O)C3Cc5cc(C)c(OC)c(O)c5C(C21)N3C)OCO4 | < 31.6 nM |
| CC1COCCN1c1cc(-c2ccnn2C)c2ccnc(-c3ccn[nH]3)c2n1 (stereo not given) + COc1cc2c(cc1O)CCNC21CSC2c3c(OC(C)=O)c(C)c4c(c3C(COC1=O)N1C(O)C3Cc5cc(C)c(OC)c(O)c5C(C21)N3C)OCO4 | < 31.6 nM |
| Cc1cc(C)c(CNC(=O)c2cc(-c3ccc(CN4CCOCC4)cc3)cc3c2cnn3C2CCCC2)c(=O)[nH]1 + COc1cc2c(cc1O)CCNC21CSC2c3c(OC(C)=O)c(C)c4c(c3C(COC1=O)N1C(O)C3Cc5cc(C)c(OC)c(O)c5C(C21)N3C)OCO4 | < 31.6 nM |
| Cn1ncnc1[C@H]1c2n[nH]c(=O)c3cc(F)cc(c23)N[C@@H]1c1ccc(F)cc1 + COc1cc2c(cc1O)CCNC21CSC2c3c(OC(C)=O)c(C)c4c(c3C(COC1=O)N1C(O)C3Cc5cc(C)c(OC)c(O)c5C(C21)N3C)OCO4 | < 9.49 nM |
| CC(C)n1c(=O)n(C)c2cnc3cc(F)c(-c4ccc(OCCCN5CCCCC5)nc4)cc3c21 + COc1cc2c(cc1O)CCNC21CSC2c3c(OC(C)=O)c(C)c4c(c3C(COC1=O)N1C(O)C3Cc5cc(C)c(OC)c(O)c5C(C21)N3C)OCO4 | < 31.6 nM |
| CC1COCCN1c1cc(-c2ccnn2C)c2ccnc(-c3ccn[nH]3)c2n1 (stereo not given) + CC[C@@]1(O)C(=O)OCc2c1cc1n(c2=O)Cc2cc3c(CN(C)C)c(O)ccc3nc2-1 | < 31.6 nM |
| Cc1sc2c(c1C)C(c1ccc(Cl)cc1)=NC(CC(=O)Nc1ccc(O)cc1)c1nnc(C)n1-2 (stereo not given) + COc1cc2c(cc1O)CCNC21CSC2c3c(OC(C)=O)c(C)c4c(c3C(COC1=O)N1C(O)C3Cc5cc(C)c(OC)c(O)c5C(C21)N3C)OCO4 | < 9.49 nM |
| Cc1sc2c(c1C)C(c1ccc(Cl)cc1)=NC(CC(=O)Nc1ccc(O)cc1)c1nnc(C)n1-2 (stereo not given) + CC[C@@]1(O)C(=O)OCc2c1cc1n(c2=O)Cc2cc3c(CN(C)C)c(O)ccc3nc2-1 | 55 nM |
| [2H]c1nc(C)nc([2H])c1-c1cc(NC[C@@H](C)c2cccc3c(C(=O)NC)ccnc23)ncn1 + COc1cc2c(cc1O)CCNC21CSC2c3c(OC(C)=O)c(C)c4c(c3C(COC1=O)N1C(O)C3Cc5cc(C)c(OC)c(O)c5C(C21)N3C)OCO4 | < 31.6 nM |
